ASSAYED_SYSTEM: MAO-B (Homo sapiens)
Construct: purchased Sigma-Aldrich
Sequence (P27338 1-520): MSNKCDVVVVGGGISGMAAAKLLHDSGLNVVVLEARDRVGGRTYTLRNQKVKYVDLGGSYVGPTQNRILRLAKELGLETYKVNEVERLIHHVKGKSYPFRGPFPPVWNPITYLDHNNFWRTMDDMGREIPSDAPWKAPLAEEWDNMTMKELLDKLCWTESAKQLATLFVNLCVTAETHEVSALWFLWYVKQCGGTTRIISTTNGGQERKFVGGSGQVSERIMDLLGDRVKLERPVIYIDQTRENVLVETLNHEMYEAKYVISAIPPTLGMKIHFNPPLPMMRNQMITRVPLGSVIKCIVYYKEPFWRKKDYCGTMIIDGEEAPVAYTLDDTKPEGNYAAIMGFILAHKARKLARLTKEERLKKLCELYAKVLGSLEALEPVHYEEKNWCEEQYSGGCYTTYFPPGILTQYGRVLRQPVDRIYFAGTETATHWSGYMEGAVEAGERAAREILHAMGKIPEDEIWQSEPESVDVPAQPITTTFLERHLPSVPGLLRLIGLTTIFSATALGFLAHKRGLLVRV
ASSAY_COMMENT: MAO-B inhibition assay (recombinant enzyme, benzylamine substrate)
Format: biochemical
PROTOCOL_CONDITIONS: 10 µM compound; recombinant MAO-B, benzylamine 0.3 mM; read-out: Residual Activity at 10 µM (%) MAO-B
Protocol: Recombinant MAO-A and MAO-B were used to test the MAO inhibitory activity using the substrates kynuramine and benzylamine (0.06 mM and 0.3 mM, respectively). […] Chemicals were from Sigma-Aldrich. MAO-A At 10 µM, compounds’ inhibitory effects on MAOs were initially recorded. […] The SI values of MAO-B were calculated by dividing the IC50 values for MAO-A and those for MAO-B. The MAO-B was used to study the kinetics of substances DM2 or DM18 at five different substrate concentrations. […]
Consider the reported remaining activity at 10 µM of an entry and match it to a band in zone 1 (below 8%), zone 2 (8% to below 10%), zone 3 (10% or more)

Some entries whose results are on file:
{"columns": ["COMPOUND", "LABEL_CLASS"],
 "data": [
  ["COc1ccc(C(=O)/C=C/c2ccc(F)cc2)cc1OC [DM20]", "zone 1"],
  ["COc1ccc(C(=O)/C=C/c2cccc(F)c2)cc1OC [DM19]", "zone 1"],
  ["COc1ccc(C(=O)/C=C/c2cccc(F)c2)c(OC)c1 [DM9]", "zone 3"],
  ["COc1ccc(C(=O)/C=C/c2ccccc2Cl)cc1OC [DM12]", "zone 2"],
  ["COc1ccc(C(=O)/C=C/c2ccc(Cl)cc2)cc1OC [DM14]", "zone 2"]
]}

Request: Quick check: band for COc1ccc(C(=O)/C=C/c2ccccc2)cc1OC [DM11]
Response: zone 3

Request: Quick check: band for COc1ccc(C(=O)/C=C/c2ccccc2Br)c(OC)c1 [DM5]
Response: zone 3

Request: Quick check: band for COc1ccc(C(=O)/C=C/c2cccc(Cl)c2)cc1OC [DM13]
Response: zone 1

Request: Quick check: band for COc1ccc(C(=O)/C=C/c2cccc(Br)c2)cc1OC [DM16]
Response: zone 3

Request: Quick check: band for COc1ccc(C(=O)/C=C/c2ccc(Br)cc2)c(OC)c1 [DM7]
Response: zone 3

* * *

ASSAYED_SYSTEM: MAO-B (Homo sapiens, UniProt P27338)
Construct: purchased Sigma-Aldrich
ASSAY_COMMENT: MAO-B inhibition assay (recombinant enzyme, benzylamine substrate)
Format: biochemical
PROTOCOL_CONDITIONS: 10 µM compound; recombinant MAO-B, benzylamine 0.3 mM; read-out: Residual Activity at 10 µM (%) MAO-B
MEASURE_NAME: remaining activity at 10 µM

{"columns": ["CHEMICAL_STRUCTURE", "remaining activity at 10 µM"],
 "data": [
  ["COc1ccc(C(=O)/C=C/c2ccccc2Br)cc1OC", "10.2%"],
  ["COc1ccc(C(=O)/C=C/c2cccc(Br)c2)c(OC)c1", "5.5%"],
  ["COc1ccc(C(=O)/C=C/c2ccccc2F)c(OC)c1", "11.1%"],
  ["COc1ccc(C(=O)/C=C/c2ccccc2F)cc1OC", "8.87%"]
]}

Request: If you can, please state the reported remaining activity at 10 µM value of COc1ccc(C(=O)/C=C/c2ccc(Br)cc2)cc1OC .
Response: 13.8%

Request: If you can, please state the reported remaining activity at 10 µM value of COc1ccc(C(=O)/C=C/c2ccc(F)cc2)c(OC)c1 .
Response: 23.2%

* * *

ASSAYED_SYSTEM: AChE (Electrophorus electricus)
Sequence (O42275 24-633): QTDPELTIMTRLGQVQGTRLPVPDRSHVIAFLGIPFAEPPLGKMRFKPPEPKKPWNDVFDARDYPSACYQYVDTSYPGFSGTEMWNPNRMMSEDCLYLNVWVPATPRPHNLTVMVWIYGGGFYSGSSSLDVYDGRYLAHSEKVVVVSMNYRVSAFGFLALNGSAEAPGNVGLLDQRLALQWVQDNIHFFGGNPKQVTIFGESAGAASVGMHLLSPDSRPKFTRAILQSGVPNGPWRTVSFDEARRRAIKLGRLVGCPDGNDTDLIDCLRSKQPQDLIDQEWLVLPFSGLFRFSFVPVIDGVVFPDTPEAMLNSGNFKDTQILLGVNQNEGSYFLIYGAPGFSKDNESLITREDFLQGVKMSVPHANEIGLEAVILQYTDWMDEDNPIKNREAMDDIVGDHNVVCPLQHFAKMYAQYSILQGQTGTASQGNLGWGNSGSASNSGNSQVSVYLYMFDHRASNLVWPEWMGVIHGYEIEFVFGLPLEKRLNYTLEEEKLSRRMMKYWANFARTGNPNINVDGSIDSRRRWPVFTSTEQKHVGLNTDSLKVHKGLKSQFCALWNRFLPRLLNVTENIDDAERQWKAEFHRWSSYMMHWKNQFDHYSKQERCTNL
ASSAY_COMMENT: AChE inhibition (colorimetric, acetylthiocholine iodide)
Assay type: biochemical
PROTOCOL_CONDITIONS: read-out: Residual activity at 10 µM (%) AChE
MEASURE_NAME: remaining activity at 10 µM (%)
Could you give me the number in %? Just the number is fine.

These recorded examples may help you get a feel for the data.
{"columns": ["CHEMICAL_STRUCTURE", "UNITS_TEXT", "VAL"],
 "data": [
  ["COc1ccc(C(=O)/C=C/c2ccccc2F)c(OC)c1", "%", 82.7],
  ["COc1ccc(C(=O)/C=C/c2ccc(F)cc2)cc1OC", "%", 87],
  ["COc1ccc(C(=O)/C=C/c2ccccc2Br)c(OC)c1", "%", 71.2],
  ["COc1ccc(C(=O)/C=C/c2ccccc2)c(OC)c1", "%", 75.6],
  ["COc1ccc(C(=O)/C=C/c2ccccc2F)cc1OC", "%", 78.5]
]}

Request: If you can, please state the reported remaining activity at 10 µM value of COc1ccc(C(=O)/C=C/c2ccccc2Br)cc1OC .
Response: 83.9

Request: If you can, please state the reported remaining activity at 10 µM value of COc1ccc(C(=O)/C=C/c2ccc(Cl)cc2)c(OC)c1 .
Response: 74.2

Request: If you can, please state the reported remaining activity at 10 µM value of COc1ccc(C(=O)/C=C/c2cccc(F)c2)cc1OC .
Response: 70

Request: If you can, please state the reported remaining activity at 10 µM value of COc1ccc(C(=O)/C=C/c2cccc(Cl)c2)cc1OC .
Response: 95

Request: If you can, please state the reported remaining activity at 10 µM value of COc1ccc(C(=O)/C=C/c2ccc(Br)cc2)c(OC)c1 .
Response: 87.2

* * *

ASSAY_COMMENT: MTT cytotoxicity test on Vero cells
Format: cell-based, African green monkey
PROTOCOL_CONDITIONS: African green monkey, Vero cells, 100 µg/mL, MTT, read-out: Cells alive (relative cell viability)
MEASURE_NAME: viability at 48 h, 100 µg/mL (%)
Could you give me the number in %? Just the number is fine.

Request: If you can, please state the reported viability at 48 h, 100 µg/mL value of COc1ccc(C(=O)/C=C/c2ccccc2Cl)c(OC)c1 .
Response: 80

* * *

ASSAYED_SYSTEM: MAO-B (Homo sapiens, UniProt P27338)
Construct: purchased Sigma-Aldrich
ASSAY_COMMENT: MAO-B inhibition assay (recombinant enzyme, benzylamine substrate)
Format: biochemical
PROTOCOL_CONDITIONS: recombinant MAO-B, benzylamine 0.3 mM; read-out: IC50 (µM) MAO-B
MEASURE_NAME: log10 IC50 (log10 of the value in µM)
Field: value | Transform: log10 | Quantity: IC50 | Unit: µM

These recorded examples may help you get a feel for the data.
{"columns": ["COMPOUND", "MEASURE_NAME", "VAL"],
 "data": [
  ["COc1ccc(C(=O)/C=C/c2cccc(Br)c2)cc1OC [DM16]", "log10 IC50", 0.05],
  ["COc1ccc(C(=O)/C=C/c2ccccc2F)c(OC)c1 [DM8]", "log10 IC50", 0.05],
  ["COc1ccc(C(=O)/C=C/c2ccc(F)cc2)cc1OC [DM20]", "log10 IC50", -0.32],
  ["COc1ccc(C(=O)/C=C/c2ccc(F)cc2)c(OC)c1 [DM10]", "log10 IC50", 0.29],
  ["COc1ccc(C(=O)/C=C/c2cccc(Br)c2)c(OC)c1 [DM6]", "log10 IC50", -0.83]
]}

Proceeding to the next compound to report its log10 IC50.
Request: If you can, please state the reported log10 IC50 value of COc1ccc(C(=O)/C=C/c2cccc(F)c2)c(OC)c1 [DM9] .
Response: -0.61

* * *

ASSAYED_SYSTEM: MAO-A (Homo sapiens, UniProt P21397)
Construct: purchased Sigma-Aldrich
Sequence (P21397 whole entry): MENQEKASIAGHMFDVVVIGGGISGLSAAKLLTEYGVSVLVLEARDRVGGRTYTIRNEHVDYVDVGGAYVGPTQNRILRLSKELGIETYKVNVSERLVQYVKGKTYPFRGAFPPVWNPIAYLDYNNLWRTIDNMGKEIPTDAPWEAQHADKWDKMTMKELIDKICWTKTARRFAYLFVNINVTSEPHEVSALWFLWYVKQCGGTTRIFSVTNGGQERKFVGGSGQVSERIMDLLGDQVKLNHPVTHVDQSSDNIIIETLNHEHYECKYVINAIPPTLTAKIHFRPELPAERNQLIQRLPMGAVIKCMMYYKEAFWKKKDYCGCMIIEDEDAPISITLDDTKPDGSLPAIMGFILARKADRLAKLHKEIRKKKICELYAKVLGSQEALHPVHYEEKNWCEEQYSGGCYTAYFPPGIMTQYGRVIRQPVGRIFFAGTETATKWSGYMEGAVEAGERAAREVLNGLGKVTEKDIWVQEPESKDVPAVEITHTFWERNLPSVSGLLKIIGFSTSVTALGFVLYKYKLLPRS
ASSAY_COMMENT: MAO-A inhibition assay (recombinant enzyme, kynuramine substrate)
Type: biochemical
MEASURE_NAME: pIC50
Scale for pIC50: -log10 of concentration given in mol/L; no unit attached.

{"columns": ["CHEMICAL_STRUCTURE", "ASSAYED_SYSTEM", "pIC50"],
 "data": [
  ["COc1ccc(C(=O)/C=C/c2ccc(Cl)cc2)c(OC)c1", "MAO-A (Homo sapiens, UniProt P21397)", 5.35]
]}

Proceeding to the next compound to report its pIC50.
Request: If you can, please state the reported pIC50 value of COc1ccc(C(=O)/C=C/c2ccccc2)c(OC)c1 .
Response: 4.81
